Each entry below carries its reported Kd.
Biological target: hnRNPK KH3 (human/mouse (100% identical), UniProt P61978 379-463)
Sequence (P61978 379-463): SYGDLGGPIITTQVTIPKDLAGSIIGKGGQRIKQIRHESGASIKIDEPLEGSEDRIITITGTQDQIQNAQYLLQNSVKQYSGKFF
Experiment: fluorescence anisotropy
Write it as a number; the unit µM goes unstated.

GCCAACCUCUUCCCAUUUCCCACACUCCAACUCCCU (ssRNA) [Ucp2] | 11.1
GGUCCCCCGCCUCAUUCGCCCCUCUGCUCCC (ssRNA) [CDK6 3'UTR] | 12.9

With those in mind, consider the next binder.
### Prompt Looking for the measured Kd of ATATTCCCTC (ssDNA) [M5' ssDNA] , can you help?
### Response 8.7

Reference source for all entries: paper PMC7498318
